Entry source: PubChem BioAssay (NCI)

# System: SF-268 CNS
# Assay Overview: NCI tumour cell line growth inhibition, 48 h
Record form. Attribute: TGI. Fill in for each entry.

## Input Please look up its TGI: Cc1ccc(-c2nc(C#N)c(S(=O)(=O)n3nc(C)cc3N)o2)cc1
## Output 36.2 µM

## Input Please look up its TGI: C1=CC=C2NCCCCCCCNC3=CC=CC=CC3=NCCCCCCCN=C2C=C1
## Output > 100 µM

## Input Please look up its TGI: O=C(CCc1ccc(O)c(O)c1)NCCc1cc(O)cc(O)c1
## Output > 100 µM

## Input Please look up its TGI: CN[C@H](C#Cc1c(F)ccc2c1/C(=C/c1[nH]ccc1OC)C(=O)N2)CO
## Output 2.21 µM

## Input Please look up its TGI: CC(C)=CCC/C(=C/CC/C(=C\CCc1ccoc1)C(=O)O)C(=O)O
## Output > 100 µM

## Input Please look up its TGI: Cc1ccc(NC2=CC(=O)C(NO)c3ccccc32)cc1 (stereo not given)
## Output 17.7 µM

## Input Please look up its TGI: O=C1CSC(c2ccc([N+](=O)[O-])cc2)N1c1ccc(-n2c(-c3ccccc3)nc3ccccc3c2=O)cc1 (stereo not given)
## Output > 100 µM

## Input Please look up its TGI: CN1CNc2nc(N)n(C)c(=O)c2C1
## Output > 10 µM

## Input Please look up its TGI: CCCCCCCCC/C=C/C=C/C(=O)NCC(=O)NC1C(O)C(O)C(Nc2ncnc3nc[nH]c23)OC1C(O)CO (stereo not given)
## Output 0.671 µM

## Input Please look up its TGI: Nc1nc(N)c2nc(CNc3ccc(C(=O)NC(CC(=O)O)C(=O)O)cc3)cnc2n1 (stereo not given)
## Output > 100 µM

## Input Please look up its TGI: Nc1ccccc1S(=O)(=O)c1ccccc1
## Output > 100 µM

## Input Please look up its TGI: CCCc1cc(=O)[nH]c(-n2nc(C)cc2C)n1
## Output > 100 µM

## Input Please look up its TGI: Cc1c(N2C(=O)CS(=O)(=O)C2c2cccc(Oc3ccccc3)c2)c(=O)n(-c2ccccc2)n1C (stereo not given)
## Output > 100 µM

## Input Please look up its TGI: CCCCCCCCCCCCCCCCOCC(CC(F)(F)P(=O)(OCC)OCC)OC(C)=O (stereo not given)
## Output 27.5 µM

## Input Please look up its TGI: CC(=O)OC[C@]12CC[C@@H](C(=O)CBr)[C@@H]1[C@H]1CC[C@@H]3[C@@]4(C)CCCNC(C)(C)[C@@H]4CC[C@@]3(C)[C@]1(C)CC2
## Output 23.9 µM

## Input Please look up its TGI: CNC(=O)c1cccc2cc(Oc3ccnc4cc(OCC5(N)CC5)c(OC)cc34)ccc12
## Output 24.2 µM

## Input Please look up its TGI: Cc1cccc(CP(Cc2cccc(C)c2)CC2(Cp3c4ccccc4c4ccccc43)COC2)c1
## Output > 100 µM

## Input Please look up its TGI: O=C(Nc1cccc(-n2cc(-c3ccncc3)c(-c3ccc(Cl)c(O)c3)n2)c1)c1ccc(N2CCOCC2)c(C(F)(F)F)c1
## Output > 50 µM

## Input Please look up its TGI: CCCCCCC(=O)O[C@H]1CC[C@H]2[C@@H]3CCC4C/C(=N/NC(=O)c5cccc6c(=O)c7ccccc7[nH]c56)C=C(C)[C@]4(C)[C@H]3CC[C@]12C (stereo not given in full)
## Output > 25 µM

## Input Please look up its TGI: CCCN(CCCc1ccccc1)CCc1ccc2[nH]c(=S)[nH]c2c1
## Output > 100 µM

----------
Record form. Attribute: TGI. Fill in for each entry.
# Test system: K-562 leukemia
# Assay Overview: NCI tumour cell line growth inhibition, 48 h

## Input Please look up its TGI: CCCNC(=O)CCC(C)C1CCC2C3C(C[C@H](OC(C)=O)[C@]12C)[C@@]1(C)CCC2(C[C@H]1C[C@H]3OC(C)=O)OOC1(CC[C@]3(C)C4C[C@H](OC(C)=O)[C@]5(C)C(C(C)CCC(=O)NCCC)CCC5C4[C@H](OC(C)=O)C[C@@H]3C1)OO2 (some centres undefined)
## Output > 100 µM

## Input Please look up its TGI: O=C1c2cccc(NCCN=Cc3cc([N+](=O)[O-])ccc3O)c2C(=O)c2c(NCCN=Cc3cc([N+](=O)[O-])ccc3O)cccc21
## Output > 100 µM

## Input Please look up its TGI: Cc1cc(NCCN(C(C)C)C(C)C)nc(/N=C(\N)Nc2ccc(Cl)c(C(F)(F)F)c2)n1
## Output 0.411 µM

## Input Please look up its TGI: C[C@H](NC(=O)c1ccc(CNC(=O)/C=C/c2cccc(Oc3ccccc3)c2)cc1)c1ccccc1
## Output > 100 µM

## Input Please look up its TGI: CC[C@]1(Cc2ccc(OC)c(OC)c2)C=[N+]([O-])O[C@H](OC2CCCC2(c2ccccc2)c2ccccc2)[C@@H]1OC(C)=O (some centres undefined)
## Output > 27.7 µM

## Input Please look up its TGI: CC12CC3OC(=O)C1COC14OC5(C2C1=O)C(O)(CCC1C4CC(O)C2(O)CC=CC(=O)C12C)C(=O)OC35C (centres undefined)
## Output > 100 µM

## Input Please look up its TGI: CCn1c(-c2ccc(N=NNc3ccc(-c4n[nH]c(=S)n4CC)cc3)cc2)n[nH]c1=S
## Output > 100 µM

## Input Please look up its TGI: Nc1ccc2c(SCc3ccc([N+](=O)[O-])cc3)c3ccccc3nc2c1
## Output 27.9 µM

## Input Please look up its TGI: CCOC(=O)Cn1c(=O)c2nc(SC)sc2n(CC)c1=S
## Output > 100 µM

----------
# System: PC-3 prostate
# Assay Overview: NCI tumour cell line growth inhibition, 48 h; in the data active = GI50 below about 0.43 µM; inactive = the rest
Parameter call: string, one of class 1 (active), class 0 (inactive)

## Input Query: recorded result category for C[C@]12CCc3sc(NCCc4ccccc4)nc3C1=CC[C@@H]1[C@@H]2CC[C@]2(C)C(=O)CC[C@@H]12 in this test
## Output class 0

## Input Query: recorded result category for O=c1ccn(C2CC(O)C(CO)O2)c(=O)[nH]1 (stereo not given) in this test
## Output class 0

## Input Query: recorded result category for C=CCC1(O)c2ccccc2C(=O)c2c(NCCN(CC(=O)OCC)CC(=O)OCC)cccc21 (stereo not given) in this test
## Output class 0

## Input Query: recorded result category for CN[C@H](C#Cc1c(F)ccc2c1/C(=C/c1[nH]ccc1OC)C(=O)N2)CO in this test
## Output class 0

## Input Query: recorded result category for COc1cccc2c1ccc1nc3cccc(C(=O)N[C@H](C)CN(C)C)c3nc12 in this test
## Output class 1

## Input Query: recorded result category for COC1=CC(c2ccc[nH]2)=N/C1=C\c1[nH]c(C)c(C(=O)CCCCC(=O)NC(C)(C)C)c1C in this test
## Output class 0

## Input Query: recorded result category for COc1ccc(-c2nc(/C=N/Nc3cc(C)nc4ccc(Cl)cc34)c(C)o2)cc1 in this test
## Output class 0

## Input Query: recorded result category for COc1ccc(-c2nc(-c3ccccc3)c(-c3ccccc3)[nH]2)cc1OC1CCCC1 in this test
## Output class 0

## Input Query: recorded result category for COc1cccc(C2=C(c3c(C)n(C)c4ccccc34)C(=O)NC2=O)c1 in this test
## Output class 0

## Input Query: recorded result category for O=c1oc(Cl)c(Cl)c2ccccc12 in this test
## Output class 0

----------
# Test system: NCI-H522 lung
# Assay Overview: NCI tumour cell line growth inhibition, 48 h
Record form. Attribute: TGI. Fill in for each entry.
# output: bare number, implied unit µM

## Input Please look up its TGI: COc1ccc(/C=C/C(=O)c2ccc(O)c(CN3CCN(c4cc5c(cc4F)c(=O)c(C(=O)O)cn5C4CC4)CC3)c2)cc1
## Output 28.7

## Input Please look up its TGI: Cc1cc(Cl)ccc1Nc1nc(C(F)(F)F)ccc1C(=O)N/N=C/c1ccc(Cl)cc1
## Output 7.96

## Input Please look up its TGI: CC1=CC(=O)c2ccccc2C1=O
## Output 11.7

## Input Please look up its TGI: CC(=O)C(=Cc1ccc(C=C(C(C)=O)C(C)=O)cc1)C(C)=O
## Output 1.93

## Input Please look up its TGI: CC(=O)C1=C(C)N(c2ccc(C)cc2)C2(O)C=CC(=O)C3C(=O)N(c4ccccc4)C(=O)C132 (stereo unspecified)
## Output 22
